B1: TPR t1 (parent)
chain: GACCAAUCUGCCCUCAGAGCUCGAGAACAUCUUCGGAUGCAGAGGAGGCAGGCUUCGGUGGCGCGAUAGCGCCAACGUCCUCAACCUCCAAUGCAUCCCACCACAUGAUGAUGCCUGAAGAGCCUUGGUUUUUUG

Variants of: B1
Experiment: polymerase ribozyme fitness, log enrichment relative to wild type (log ratio); higher = more active; in vitro selection for triplet polymerase activity
metric: polymerase ribozyme fitness (log ratio)
Output: the number by itself.

Past entries and their recorded results:
sequence.chain	polymerase ribozyme fitness (log ratio)
GACCAAUCUGCCCUCAGAGCUCGAGAACAUCUUCGUAUGCAGAGGAGGCAGGCUUCGGUGGCGCGAUAGCGCCAACGUCCUCACGUUCCAAUGCAUCCCACCACAUGAUGAUGCCUGAAGAGCCUUGGUUUUUUG	-2.86
GACCAAUCUGCCCUCAGAGCUCGAGAACAUCUUCGGAUGCAGAGGAGGCAGGCUUCUGAGGCGCGAUAGCGCCAACGUCCUCAACCUCCAAUGCAUCCCACCACAUGAUGAUGCCUGAAGAGCAUUGGUUUUUUG	1.82
GACCAAUCUGCCCUCGGAGCUCGAGAACAUCUUCGGAUGCAGAGGAGGCAGGCUUCGGUGGCGCGAUAGCGCCAACGUCCUCAACCUCCAAUGCAUCCCACCACAUGAUGAUCCCUGAAGAGCCUUGGUUUUUUG	-3.85
GACCAAUCUGCCCUCAGAGCUCGAGAACAUCUUCGGAUGCAGAGGAGGCAGGCUUUGGUGGCGCGAUAGCGCCAACGUCCUCAACCUCCAAUGCAUCCCACCACAUGAUGAUGCCUGAAGAGCCUUGGCUUUUUG	-0.507

Switching to the query record.
What value of polymerase ribozyme fitness (log ratio) has been reported for the following variant? GACCAAUCUGCCCUCAGAGCUCGAGAACAUCUUCGGAUGCAAAGGAGGCAGGCUUCGGUGGCGCGAUAGCGCCAACGUCCUCCACCUCCAAUGCAUCCCACCACAUGAUGAUGCCUGAAGAGCCUUGGUUUUUUG
-1.87
